targetOrSystem: DLG5_1, Q8TDM6
Sequence (Q8TDM6 617-713): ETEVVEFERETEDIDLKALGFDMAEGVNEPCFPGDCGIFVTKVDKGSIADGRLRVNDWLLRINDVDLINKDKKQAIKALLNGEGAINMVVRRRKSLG
methodNotes: holdup assay
Parameters: key: below the threshold = too weak to quantify, mostly under pKd 3.1 to 4
testParameters: plain residues with an end cap or a label only (N-terminal biotin on a linker: ado-ado)
testReadout: pKd

[
  {
    "binder": "QGLAERISVL [PRKD2, Q9BZL6]",
    "recordedValue": "below the threshold"
  },
  {
    "binder": "IPLDGETEEL [MYOZ1, Q9NP98]",
    "recordedValue": "below the threshold"
  },
  {
    "binder": "FNSYSLTGYV [CLDN2, P57739]",
    "recordedValue": "below the threshold"
  },
  {
    "binder": "PDGQCTVTEV [RNF146, Q9NTX7]",
    "recordedValue": "below the threshold"
  },
  {
    "binder": "HLRARKSEWV [GJD4, Q96KN9]",
    "recordedValue": "below the threshold"
  },
  {
    "binder": "RRISSLESEV [GRIN2C, Q14957]",
    "recordedValue": "below the threshold"
  },
  {
    "binder": "QHKTQLQTLI [BPIFA2, Q96DR5]",
    "recordedValue": 3.48
  },
  {
    "binder": "NHSSSPETTA [TRMT13, Q9NUP7]",
    "recordedValue": "below the threshold"
  },
  {
    "binder": "QMNQTLPVQV [EPHB3, P54753]",
    "recordedValue": "below the threshold"
  },
  {
    "binder": "VYPNAKVELV [PDLIM4_iso2, P50479;P50479-1]",
    "recordedValue": "below the threshold"
  },
  {
    "binder": "VKPQVSESKL [ACOT8, O14734]",
    "recordedValue": "below the threshold"
  },
  {
    "binder": "SKENVQETQI [LRRC4B, Q9NT99]",
    "recordedValue": "below the threshold"
  },
  {
    "binder": "QSLNRMEYIV [JAG1, P78504]",
    "recordedValue": "below the threshold"
  },
  {
    "binder": "QKNRKAQEDL [CES3, Q6UWW8]",
    "recordedValue": "below the threshold"
  },
  {
    "binder": "NLSIEKETKL [ASNSD1, Q9NWL6]",
    "recordedValue": "below the threshold"
  },
  {
    "binder": "HSGYRLNDYV [CLDN14, O95500]",
    "recordedValue": "below the threshold"
  },
  {
    "binder": "TPPAAKKSRI [BAZ1A, Q9NRL2]",
    "recordedValue": 3.57
  },
  {
    "binder": "PRAEAEDSFL [PDGFRB, P09619]",
    "recordedValue": 3.48
  }
]
